- system: Kv1.3 potassium channel (Homo sapiens (Human))
- protocol.description: Kv1.3 potassium channel blocker activity, automated whole-cell patch clamp in CHO-K1 cells stably expressing Kv1.3
- conditions.used: Patchliner patch clamp
readout.type: IC50

Below are worked cases with known answers.
CC(C)(CO)NC(=O)C[C@H]1CN[C@@H](c2c(O)ccc(Cl)c2Cl)C1; < 1 µM
NC(=O)C[C@H]1CN[C@@H](c2c(O)ccc(Cl)c2Cl)C1; < 1 µM
O=C(C[C@H]1CN[C@@H](c2c(O)ccc(Cl)c2Cl)C1)N1CC(O)C1; < 0.1 µM

I have this compound here, C[C@@H](C(N)=O)[C@H]1CN[C@@H](c2c(O)ccc(Cl)c2Cl)C1 (single isomer, unassigned) , and I need its recorded IC50. < 1 µM

I have this compound here, O=C(CO)NC[C@@H]1CN[C@@H](c2c(O)ccc(Cl)c2Cl)C1 , and I need its recorded IC50. < 1 µM

I have this compound here, CC[C@H](C(N)=O)[C@H]1CN[C@@H](c2c(O)ccc(Cl)c2Cl)C1 (single isomer, unassigned) , and I need its recorded IC50. < 0.1 µM

I have this compound here, C[C@@H](O)CNC(=O)C[C@H]1CN[C@@H](c2c(O)ccc(Cl)c2Cl)C1 , and I need its recorded IC50. < 0.1 µM

###

- system: hERG channel (Homo sapiens (Human))
- Sequence (Q12809 whole entry): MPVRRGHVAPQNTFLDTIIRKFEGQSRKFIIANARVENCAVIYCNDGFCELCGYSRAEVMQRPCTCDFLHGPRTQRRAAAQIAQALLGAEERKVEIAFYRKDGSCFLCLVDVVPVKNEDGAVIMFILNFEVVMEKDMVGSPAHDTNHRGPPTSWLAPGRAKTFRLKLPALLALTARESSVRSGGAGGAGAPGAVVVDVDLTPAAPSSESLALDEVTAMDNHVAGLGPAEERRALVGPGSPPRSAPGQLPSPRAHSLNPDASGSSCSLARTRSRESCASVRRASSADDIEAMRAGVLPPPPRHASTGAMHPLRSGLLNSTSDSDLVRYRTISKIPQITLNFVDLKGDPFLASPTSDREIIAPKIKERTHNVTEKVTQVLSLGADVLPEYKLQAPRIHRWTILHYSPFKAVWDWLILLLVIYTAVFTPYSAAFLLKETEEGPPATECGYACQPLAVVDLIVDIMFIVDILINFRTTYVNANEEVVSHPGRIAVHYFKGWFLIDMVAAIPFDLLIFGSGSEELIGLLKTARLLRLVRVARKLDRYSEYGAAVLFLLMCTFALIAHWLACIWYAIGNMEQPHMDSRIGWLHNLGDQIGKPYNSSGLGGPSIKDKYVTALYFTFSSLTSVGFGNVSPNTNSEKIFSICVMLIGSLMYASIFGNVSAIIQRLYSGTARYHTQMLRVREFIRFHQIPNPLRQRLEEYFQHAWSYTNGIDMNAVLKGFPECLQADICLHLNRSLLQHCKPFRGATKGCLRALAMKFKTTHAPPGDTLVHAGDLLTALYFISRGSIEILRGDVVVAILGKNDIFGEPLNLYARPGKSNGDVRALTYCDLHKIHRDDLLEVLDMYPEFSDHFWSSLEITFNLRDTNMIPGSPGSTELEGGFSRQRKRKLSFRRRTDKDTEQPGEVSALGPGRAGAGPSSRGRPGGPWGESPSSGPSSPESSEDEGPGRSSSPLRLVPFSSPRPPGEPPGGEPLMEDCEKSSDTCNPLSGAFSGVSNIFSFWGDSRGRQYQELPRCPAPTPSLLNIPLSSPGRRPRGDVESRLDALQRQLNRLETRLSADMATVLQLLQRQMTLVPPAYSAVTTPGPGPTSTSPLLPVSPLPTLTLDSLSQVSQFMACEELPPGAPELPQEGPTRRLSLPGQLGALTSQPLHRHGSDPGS
- protocol.description: hERG electrophysiology, automated whole-cell patch clamp in CHO-K1 cells stably expressing hERG
- Format: cell-based
- conditions.used: Patchliner patch clamp
Measured IC50 values are reported for all entries that follow.

C[C@H](CO)NC(=O)C[C@H]1CN[C@@H](c2c(O)ccc(Cl)c2Cl)C1 [Compound 63]; > 100 µM
NC(=O)C(CO)[C@H]1CN[C@@H](c2c(O)ccc(Cl)c2Cl)C1 (single isomer, unassigned) [Compound 77]; > 100 µM
O=C(C[C@H]1CN[C@@H](c2c(O)ccc(Cl)c2Cl)C1)N1CCC[C@@H](O)C1 [Compound 58]; > 30 µM

I have this compound here, CC(C)(CO)NC(=O)C[C@H]1CN[C@@H](c2c(O)ccc(Cl)c2Cl)C1 [Compound 71] , and I need its recorded IC50. > 100 µM

###

- system: Kv1.3 potassium channel (Homo sapiens (Human))
- protocol.description: Kv1.3 potassium channel blocker activity, automated whole-cell patch clamp in CHO-K1 cells stably expressing Kv1.3
- conditions.used: Patchliner patch clamp
readout.type: IC50

O=C(C[C@H]1CN[C@@H](c2c(O)ccc(Cl)c2Cl)C1)N1CC(CO)C1 [Compound 60]; < 1000 nM

Please examine the following record next.
I have this compound here, NC(=O)C[C@@H]1CN[C@@H](c2c(O)ccc(Cl)c2Cl)C1 [Compound 32] , and I need its recorded IC50. < 1000 nM

###

- system: Kv1.3 potassium channel (Homo sapiens (Human), UniProt P22001)
- Sequence (P22001 whole entry): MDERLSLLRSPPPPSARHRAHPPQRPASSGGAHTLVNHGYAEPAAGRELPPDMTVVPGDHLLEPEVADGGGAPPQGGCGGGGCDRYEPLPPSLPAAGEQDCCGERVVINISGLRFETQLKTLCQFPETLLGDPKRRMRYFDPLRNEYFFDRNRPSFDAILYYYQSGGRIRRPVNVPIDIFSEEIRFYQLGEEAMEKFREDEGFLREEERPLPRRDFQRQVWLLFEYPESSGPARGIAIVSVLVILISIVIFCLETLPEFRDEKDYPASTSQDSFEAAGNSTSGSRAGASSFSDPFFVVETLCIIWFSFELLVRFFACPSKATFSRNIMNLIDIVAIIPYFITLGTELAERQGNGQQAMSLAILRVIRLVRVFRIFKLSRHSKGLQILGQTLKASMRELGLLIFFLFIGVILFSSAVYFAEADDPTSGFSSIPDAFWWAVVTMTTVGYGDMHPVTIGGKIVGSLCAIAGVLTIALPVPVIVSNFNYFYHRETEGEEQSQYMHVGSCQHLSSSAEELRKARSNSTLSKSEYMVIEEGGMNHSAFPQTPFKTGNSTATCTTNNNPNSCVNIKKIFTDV
- protocol.description: Kv1.3 potassium channel blocker activity, automated whole-cell patch clamp in CHO-K1 cells stably expressing Kv1.3
- conditions.used: Patchliner patch clamp
pIC50: −log10 of the molar value.
readout.type: pIC50

I have this molecule here, O=C(CC1CN[C@@H](c2c(O)ccc(Cl)c2Cl)C1)N1CC(O)(CO)C1 (some centres unmarked) , and I need its recorded pIC50. > 7.00

I have this molecule here, COC[C@@H](C(N)=O)[C@H]1CN[C@@H](c2c(O)ccc(Cl)c2Cl)C1 (single isomer, unassigned) , and I need its recorded pIC50. > 6.00

I have this molecule here, C[C@H](O)CNC(=O)C[C@H]1CN[C@@H](c2c(O)ccc(Cl)c2Cl)C1 , and I need its recorded pIC50. > 7.00

I have this molecule here, CN(C)C(=O)C[C@H]1CN[C@@H](c2c(O)ccc(Cl)c2Cl)C1 , and I need its recorded pIC50. > 6.00

I have this molecule here, Oc1ccc(Cl)c(Cl)c1[C@H]1C[C@@H](Cc2cc[nH]n2)CN1 , and I need its recorded pIC50. > 6.00

I have this molecule here, O=C(CC1CN[C@@H](c2c(O)ccc(Cl)c2Cl)C1)NCCO (some centres unmarked) , and I need its recorded pIC50. > 7.00

I have this molecule here, C[C@@]1(CC(N)=O)CN[C@@H](c2c(O)ccc(Cl)c2Cl)C1 , and I need its recorded pIC50. > 6.00

I have this molecule here, O=C(CC1CN[C@@H](c2c(O)ccc(Cl)c2Cl)C1)N1CC[C@@H](O)C1 (some centres unmarked) , and I need its recorded pIC50. > 7.00
